All figures here come from the DeepSol protein solubility set.

- protocol summary: soluble on expression in E. coli; label from the status in PepcDB or PDB records
endpoint: soluble on expression in E. coli

sequence text: MGSDKIHHHHHHMPPLSIPADQYLRLSDKSQVRCYRSHFSDRMEMLAPPKNVAAYLDHHQGWFQRCAAPMEVKALDDQSYLLTLGRFGNFGFEVEPCIGLKLLPQQQGLYQIINVDLTHQDLPLCDHYDVDFKAGLKLEPSETEASNTVQQTTIVNWDLDLSVWIQLPKVITLLPDGLVQTSGDQLLRQVVRQISRRLTWKVQEDFHATHGLTCPPRRHAAF
observed measurement: not soluble
//
sequence text: MGSDKIHHHHHHMKSVGQALENQGRVPRNTNDELIQMILADAQVAEFIKTHQLSQREINISMSKFNQFLIERQKFKNKDSQYIAKGYEPILVMNEGYADVSYLETRELIEAQKKQAISDRINLVNLPKSYRNIRMTDFDINNESRMKAMSQLLDFVETYPSYNHKGLYLYGDMGVGKSYLMAAMARELSERKGVSTTLLHFPSFAIDVKNAISSGTVKDEIDAVKSVPILILDDIGAEQATSWVRDEILQVILQHRMLEELPTFFTSNYSFNDLERKWANIKGSDETWQAKRVMERVRYLAIEFHLEGPNRR
observed measurement: not soluble

---

- protocol summary: soluble on expression in E. coli; label from the status in PepcDB or PDB records
endpoint: soluble on expression in E. coli

sequence text: MSLEYFDMRKMSVNLWRNAAGETREICTFPPAKRDFYWRASITSIAANGEFSLFPGMERIVTLLEGGEMFLESADRFNHTLKPLQPFSFAADLVVKAKLTAGQMSMDFNIMTRLDVCKAKVRIAERTFTTFGSRGGVVFVINGAWQLGDKLLTTDQGACWFDGRHTLRLLQPQGKLLFSEINWLAGHSEGHHHHHH
endpoint: soluble on expression in E. coli
observed measurement: not soluble
--
sequence text: MIDENLIKINLICESQDEVFHYLATLVVDNGYANNTESVVQALKLRESEGTTGMMEGFAIPHAKDKSIVKPSIAILKLKTGVEWHSMDGQLINNVIALFIPEKEAGTTHLKVLSQIARLLVNKTFKEKIKEADTILELKELLTEKLDLTS
endpoint: soluble on expression in E. coli
observed measurement: not soluble
--
sequence text: MGHHHHHHSHAKGKERQWLRHQATGELDDAKIIDGLTGEKAIYKRRGELEPQLGSPQQKPKRLRLVVDVSGSMYRFNRMDGRLERTMEAVCMVMEAFENYEEKFQYDIVGHSGDGYNIGLVPMNKIPKDNKQRLEILKTMHAHSQFCMSGDHTLEGTEHAIKEIVKEEADEYFVIVLSDANLSRYGIHPAKFAQILTRDPQVNAFAIFIGSLGDQATRLQRTLPAGRSFVAMDTKDIPQILQQIFTSTMLSSV
endpoint: soluble on expression in E. coli
observed measurement: not soluble
--
sequence text: MSLDPSKVTSMSAVEFTPLPTCLQHRSCDACMSSDLTFNCSWCHVLQRCSSGFDRYRQEWMDYGCAQEAEGRMCEDFQDEGHHHHHH
endpoint: soluble on expression in E. coli
observed measurement: not soluble
--
sequence text: MATITQRNGKWRVQIRMKGVSRSATFERASDAKAWAARIESQIMDGIQGNAPRNTIFADLIRRYLSEVTPSKRGAREESYRIGRALKTPLAKVRLADLRPQDFADWRDQRLQEVSPTSVGRELTTLSAVCEHAMKEWGLLRENPVRKISKPKKSRARTRRPTEQEIADICAALLYRPNEKPKMAVQRVAVAVLFAIETAMRAGEICGLKWADVNMRRRIAHLPITKNGDSRDVPLSLRAAELIEQLRGIDDTWVFSLDAKSLDVLFRRARDNCGIQGLHFHDTRREALTRLSKKVPVEVLAKISGHRDLRILLNVYYRPDMADIAKMLD
endpoint: soluble on expression in E. coli
observed measurement: not soluble
--
sequence text: MGSDKIHHHHHHMMGGEFTLTEREAEYLFRIIDSSINIFRRHQFFLWAQGELQGLLPHGMLICLFDEGNGQAVNIERFSRTDMDEIRFSELCRPDGGIVFRAMSAWSAGKNQPLLVCPNNSHTPTYKRFSNDLKRENLQRIAAHGMFDTNGRTTCFFTFTQISAALSERHAYFLELLMPHMHMALVRMLFHERHHKQGAVGERSRKLITDRETEILRHVQAGKSNHEIAQLLYISPLTVKNHIQKILKKLDVNNRAHAVAKAMALKITL
endpoint: soluble on expression in E. coli
observed measurement: not soluble
--
sequence text: MSMKGKETMSNEKIVVGKFGATYGIRGWLKVFSYTDNAESIFDYSPWYINQKGKWVEYKVESWKRHNKGMVAKLEGMDVREDAHLMTNFEIAIDPAVLPELSEDEFYWRELFGMHVVTTKGYDLGVVTDMLETGSNDVLVVKANLKDAFGQKERLIPFLEEQVIIKVDREAQRIEVDWDPGFLEHHHHHH
endpoint: soluble on expression in E. coli
observed measurement: soluble
--
sequence text: MSLKVDSFSLPLSSPLATARETISQRSGFVVRYDHRGETGVGEATPLPGWTESLDDCQRGLNDAATVAAGGGHTDVLLSLDAASVPAARHGFATALLDADARADGVPLYQWFDSERHCNRVPVNATVGDGSPAETADAVERAVEAGYDCCKMKVGKRTVDEDVARVRTVRERVGDDVTLRADANGAWSRDRAQEAFDRLAPLDVAYVEQPLPADDLTGHAGLRGNGVGVALDESLVDRRVDSVLDADAADVLILKPMVLGGPGNAHTLALRAREQGVEPVVTTTIDAVVARLAALHVAAAIPDVAACGLATGDRLAADLAPDPTTVTDGAMSVPQSTGLGIDPTEVGTDAEGHHHHHH
endpoint: soluble on expression in E. coli
observed measurement: soluble
--
sequence text: MVDFYYLPGSSPCRSVIMTAKAVGVELNKKLLNLQAGEHLKPEFLKINPQHTIPTLVDNGFALWESRAIQVYLVEKYGKTDSLYPKCPKKRAVINQRLYFDMGTLYQSFANYYYPQVFAKAPADPEAFKKIEAAFEFLNTFLEGQDYAAGDSLTVADIALVATVSTFEVAKFEISKYANVNRWYENAKKVTPGWEENWAGCLEFKKYFE
endpoint: soluble on expression in E. coli
observed measurement: soluble
--
sequence text: MIASKMPREVRLPSFQIEIIGAMSTYKIYCQSLLPLSHSALLIMVAPSFPLLNLPEKSLKEVFCNMSVVQQTCISMISEKTKNLVRKFHIFKQVQIWLDFSDSLRCYMSLKGISLSIWHTPMWH
endpoint: soluble on expression in E. coli
observed measurement: not soluble
--
sequence text: MAPSCLKMAHMRLLLTSFGHDHIRDFVRGTVAYIPDATRLFADSPEAAPFMETERNMLREHGLSIRELPISTSTPEEVDRVLGEVDGVYVAGGETFDLMWLLRSTGNDEVLIKHVRAGLPYIGTSAGAVIAGPSIEPISFLDSPDVAPNLSDYSGLGLCEHVVVPHAGGTIPQFPIDVFAETVRTYGAEFPLVLLKDGQALLIDDHGVHLILEHHHHHH
endpoint: soluble on expression in E. coli
observed measurement: soluble
--
sequence text: GSHMASMTGGQQMGRGSENLYFQGNPILAGLGFSLPKRQVSNHDLVGRINTSDEFIVERTGVRTRYHVEPEQAVSALMVPAARQAIEAAGLLPEDIDLLLVNTLSPDHHDPSQACLIQPLLGLRHIPVLDIRAQCSGLLYGLQMARGQILAGLARHVLVVCGEVLSKRMDCSDRGRNLSILLGDGAGAVVVSAGESLEDGLLDLRLGADGNYFDLLMTAAPGSASPTFLDENVLREGGGEFLMRGRPMFEHASQTLVRIAGEMLAAHELTLDDIDHVICHQPNLRILDAVQEQLGIPQHKFAVTVDRLGNMASASTPVTLAMFWPDIQPGQRVLVLTYGSGATWGAALYRKPEEVNRPC
endpoint: soluble on expression in E. coli
observed measurement: soluble
